The values you see were collected from patent US20200339690A1.

Collected binding (fold over iso) values appear next to each entry.
Target: T1, human LILRA2 (human, UniProt Q8N149 24-483)
T1 construct: Over-expressed on CHO-s cells; also called hLILRA2
T1 sequence (Q8N149 24-483 S135L limits assumed): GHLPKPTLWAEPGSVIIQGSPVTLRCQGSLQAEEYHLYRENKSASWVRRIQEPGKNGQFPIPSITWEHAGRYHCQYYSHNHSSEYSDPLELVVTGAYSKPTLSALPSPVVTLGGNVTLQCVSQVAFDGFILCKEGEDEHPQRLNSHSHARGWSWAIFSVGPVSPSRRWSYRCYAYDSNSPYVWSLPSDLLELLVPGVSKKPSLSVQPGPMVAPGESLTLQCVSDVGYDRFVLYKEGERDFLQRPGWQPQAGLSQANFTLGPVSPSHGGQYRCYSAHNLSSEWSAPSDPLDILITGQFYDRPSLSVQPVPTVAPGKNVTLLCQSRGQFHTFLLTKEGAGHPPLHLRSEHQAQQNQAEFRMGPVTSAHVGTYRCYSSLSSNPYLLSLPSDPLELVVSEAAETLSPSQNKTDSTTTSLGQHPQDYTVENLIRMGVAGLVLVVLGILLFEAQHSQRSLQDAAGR
Assay: flow cytometry, LILRA2 CHOs
Use fold over iso as the unit, but write only the number.

Example results:
J-19.h4 (antibody, human IgG4 S228P, kappa, V domains shown, Humanized, human IgG4 backbone) VH: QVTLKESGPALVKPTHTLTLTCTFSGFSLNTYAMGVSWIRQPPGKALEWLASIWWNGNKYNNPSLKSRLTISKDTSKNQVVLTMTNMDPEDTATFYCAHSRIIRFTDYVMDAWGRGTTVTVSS VL: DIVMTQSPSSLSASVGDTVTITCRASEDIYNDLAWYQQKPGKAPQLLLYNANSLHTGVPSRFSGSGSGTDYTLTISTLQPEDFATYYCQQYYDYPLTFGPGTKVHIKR: 0.96
J-19.h2 (antibody, human IgG4 S228P, kappa, V domains shown, Humanized, human IgG4 backbone) VH: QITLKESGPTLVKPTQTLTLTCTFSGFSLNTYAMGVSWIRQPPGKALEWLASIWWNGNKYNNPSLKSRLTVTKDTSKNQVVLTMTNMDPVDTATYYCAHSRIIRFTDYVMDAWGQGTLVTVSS VL: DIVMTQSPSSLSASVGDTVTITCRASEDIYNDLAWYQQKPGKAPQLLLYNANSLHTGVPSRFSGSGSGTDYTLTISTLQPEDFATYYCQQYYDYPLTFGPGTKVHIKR: 0.66

Below: the item to evaluate.
Which binding (fold over iso) value belongs to J-19.h3 (antibody, human IgG4 S228P, kappa, V domains shown, Humanized, human IgG4 backbone) VH: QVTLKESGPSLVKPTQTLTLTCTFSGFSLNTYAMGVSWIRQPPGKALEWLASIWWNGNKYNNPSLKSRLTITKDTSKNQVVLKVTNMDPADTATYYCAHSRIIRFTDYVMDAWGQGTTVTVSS VL: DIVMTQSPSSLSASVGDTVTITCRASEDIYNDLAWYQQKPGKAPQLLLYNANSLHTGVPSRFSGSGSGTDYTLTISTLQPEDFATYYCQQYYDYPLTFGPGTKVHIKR ?
0.83
